Source listed as PubChem BioAssay (NCI).

tested on: MCF7 breast; assay: NCI tumour cell line growth inhibition, 48 h
Property Label: TGI (µM)
Answers are plain numbers, in µM.

Below are worked cases with known answers.
* CCCCC/C(C=C(C#N)C#N)=C/c1ccccc1 | 17.4
* COc1cc(/C=C/c2cc(/C=C/c3ccc(O)c(OC)c3)n(-c3ccccc3)n2)ccc1O | 1.7
* NCC1CCN(c2nc3ccccc3c3c2CCCC3)CC1 | 15

Now for a further molecule.
# input molecule: Nc1cc(CO)cc(Nc2nc3ccc(Cl)cc3c3[nH]c4ccccc4c23)c1 ; wanted: its TGI
3.92

====

Could you please report measured GI50 for the items listed next?
tested on: HCT-15 colon; assay: NCI tumour cell line growth inhibition, 48 h

Look up GI50 for the entries below, preserving their order.
1. Cc1ccc(S(=O)(=O)N(CCOc2ccc(/C(N)=N/Cl)cc2)CCOc2ccc(/C(N)=N\Cl)cc2)cc1
2. N#Cc1ccc(C#Cc2ccccc2C#CCCCCO)cc1

["> 100 µM", "15.6 µM"]
